Please respond with reported PREEMERGENCE HERBICIDAL ACTIVITY (% CONTROL) IPOSS for every item in the list.
# System: morningglory (Ipomea lacunosa or Ipomea hederacea)
# assayName: Preemergence herbicidal activity, morningglory
# Format: in vivo
# condition: Rate of Application 0.3 Kg/Ha, examined after 12-17 days
Write the value in % as a bare number.

Query PREEMERGENCE HERBICIDAL ACTIVITY (% CONTROL) IPOSS on morningglory (Ipomea lacunosa or Ipomea hederacea) for CNC(=O)OC(C)c1cc2c(Cl)cc(F)c(-n3c(=O)cc(C(F)(F)F)n(C)c3=O)c2o1 (stereo not shown)
100

Query PREEMERGENCE HERBICIDAL ACTIVITY (% CONTROL) IPOSS on morningglory (Ipomea lacunosa or Ipomea hederacea) for CC(OC(=O)c1ccccc1)c1cc2c(Cl)cc(F)c(-n3c(=O)cc(C(F)(F)F)n(C)c3=O)c2o1 (stereo not shown)
100

Query PREEMERGENCE HERBICIDAL ACTIVITY (% CONTROL) IPOSS on morningglory (Ipomea lacunosa or Ipomea hederacea) for CC(C)c1cc2c(Cl)cc(F)c(-n3c(=O)cc(C(F)(F)F)n(C)c3=O)c2o1
100

Query PREEMERGENCE HERBICIDAL ACTIVITY (% CONTROL) IPOSS on morningglory (Ipomea lacunosa or Ipomea hederacea) for Cn1c(C(F)(F)F)cc(=O)n(-c2ccc(Cl)c3cc(C=O)oc23)c1=O
100

Query PREEMERGENCE HERBICIDAL ACTIVITY (% CONTROL) IPOSS on morningglory (Ipomea lacunosa or Ipomea hederacea) for CC(O)c1cc2c(Cl)cc(F)c(-n3c(=O)cc(C(F)(F)F)n(C)c3=O)c2o1 (stereo not shown)
100

Query PREEMERGENCE HERBICIDAL ACTIVITY (% CONTROL) IPOSS on morningglory (Ipomea lacunosa or Ipomea hederacea) for Cn1c(C(F)(F)F)cc(=O)n(-c2c(F)cc(Cl)c3[nH]c(C45CC6CC(CC(C6)C4)C5)nc23)c1=O
95

Query PREEMERGENCE HERBICIDAL ACTIVITY (% CONTROL) IPOSS on morningglory (Ipomea lacunosa or Ipomea hederacea) for Cn1c(C(F)(F)F)cc(=O)n(-c2c(F)cc(Cl)c3nc(Cc4cccc(Cl)c4)[nH]c23)c1=O
70

---

# Test system: soybean (Glycine max var. Winchester)
# assayName: Preemergence herbicidal activity, soybean
# Assay type: in vivo
# condition: Rate of Application 0.3 Kg/Ha, examined after 12-17 days
observable: PREEMERGENCE HERBICIDAL ACTIVITY (% CONTROL) SOY (%)
Write the value in % as a bare number.

Query PREEMERGENCE HERBICIDAL ACTIVITY (% CONTROL) SOY on soybean (Glycine max var. Winchester) for CC(C)C(=O)OC(C)c1cc2c(Cl)cc(F)c(-n3c(=O)cc(C(F)(F)F)n(C)c3=O)c2o1 (centres unmarked)
100

Query PREEMERGENCE HERBICIDAL ACTIVITY (% CONTROL) SOY on soybean (Glycine max var. Winchester) for Cc1nc2c(-n3c(=O)cc(C(F)(F)F)n(C)c3=O)c(F)cc(Cl)c2o1
100

Query PREEMERGENCE HERBICIDAL ACTIVITY (% CONTROL) SOY on soybean (Glycine max var. Winchester) for CC(=O)N(C(C)=O)c1nc2c(-n3c(=O)cc(C(F)(F)F)n(C)c3=O)c(F)cc(Br)c2o1
40

Query PREEMERGENCE HERBICIDAL ACTIVITY (% CONTROL) SOY on soybean (Glycine max var. Winchester) for CC(OC(C)(C)C)c1cc2c(Cl)cc(F)c(-n3c(=O)cc(C(F)(F)F)n(C)c3=O)c2o1 (centres unmarked)
95

Query PREEMERGENCE HERBICIDAL ACTIVITY (% CONTROL) SOY on soybean (Glycine max var. Winchester) for Cc1cc2c(Cl)cc(F)c(-n3c(=O)cc(C(F)(F)F)n(C)c3=O)c2o1
100

Query PREEMERGENCE HERBICIDAL ACTIVITY (% CONTROL) SOY on soybean (Glycine max var. Winchester) for CC(C)c1nc2c(-n3c(=O)cc(C(F)(F)F)n(C)c3=O)c(F)cc(Cl)c2[nH]1
100

Query PREEMERGENCE HERBICIDAL ACTIVITY (% CONTROL) SOY on soybean (Glycine max var. Winchester) for Cn1c(C(F)(F)F)cc(=O)n(-c2c(F)cc(Cl)c3cc(CCF)oc23)c1=O
100

Query PREEMERGENCE HERBICIDAL ACTIVITY (% CONTROL) SOY on soybean (Glycine max var. Winchester) for C=Cc1cc2c(Cl)cc(F)c(-n3c(=O)cc(C(F)(F)F)n(C)c3=O)c2o1
100

---

# Tested on: wheat (Triticum aestivum var. Lew)
# assayName: Postemergence herbicidal activity, wheat
# Format: in vivo
# condition: rate of application 0.3 Kg/Ha, rated after 12-17 days
Values of Postemergence herbicidal activity (% control) WHT strictly less than 50% map to yes (1), and values of at least 50% map to no (0).

Postemergence herbicidal activity (% control) WHT under 50%? Item: CC(c1ccccc1)c1nc2c(Cl)cc(F)c(-n3c(=O)cc(C(F)(F)F)n(C)c3=O)c2[nH]1 (stereo not shown)
no (0)

Postemergence herbicidal activity (% control) WHT under 50%? Item: CCOC(=O)c1cc2c(-n3c(=O)cc(C(F)(F)F)n(C)c3=O)c(F)cc(Cl)c2n1C
yes (1)

Postemergence herbicidal activity (% control) WHT under 50%? Item: CC(=O)OC(C)(C)c1nc2c(-n3c(=O)cc(C(F)(F)F)n(C)c3=O)c(F)cc(Cl)c2[nH]1
no (0)

Postemergence herbicidal activity (% control) WHT under 50%? Item: Cn1c(C(F)(F)F)cc(=O)n(-c2c(F)cc(Cl)c3cc(C(C)(C)O)oc23)c1=O
no (0)

Postemergence herbicidal activity (% control) WHT under 50%? Item: COCc1nc2c(-n3c(=O)cc(C(F)(F)F)n(C)c3=O)c(F)cc(Cl)c2[nH]1
no (0)

Postemergence herbicidal activity (% control) WHT under 50%? Item: Cc1nc2c(-n3c(=O)cc(C(F)(F)F)n(N)c3=O)c(F)cc(Cl)c2o1
no (0)

Postemergence herbicidal activity (% control) WHT under 50%? Item: CCOC(=O)c1cc2cccc(-n3c(=O)cc(C(F)(F)F)n(C)c3=O)c2o1
yes (1)

Postemergence herbicidal activity (% control) WHT under 50%? Item: CN(C)C(=O)c1cc2c(Cl)ccc(-n3c(=O)cc(C(F)(F)F)n(C)c3=O)c2o1
yes (1)

Postemergence herbicidal activity (% control) WHT under 50%? Item: COCOC(C)(C)c1cc2c(Cl)cc(F)c(-n3c(=O)cc(C(F)(F)F)n(C)c3=O)c2o1
no (0)

Postemergence herbicidal activity (% control) WHT under 50%? Item: Cn1c(C(F)(F)F)cc(=O)n(-c2c(F)cc(Cl)c3cc(C(C)(C)N)oc23)c1=O
yes (1)

Postemergence herbicidal activity (% control) WHT under 50%? Item: Cn1c(C(F)(F)F)cc(=O)n(-c2c(F)cc(Cl)c3cc(CCCl)oc23)c1=O
no (0)

Postemergence herbicidal activity (% control) WHT under 50%? Item: Cn1c(C(F)(F)F)cc(=O)n(-c2c(F)cc(Cl)c3c2nc(C(F)(F)F)n3C)c1=O
yes (1)

Postemergence herbicidal activity (% control) WHT under 50%? Item: Cn1c(C(F)(F)F)cc(=O)n(-c2c(F)cc(Br)c3oc(COc4ccccc4)nc23)c1=O
yes (1)

Postemergence herbicidal activity (% control) WHT under 50%? Item: CCOC(=O)c1cc2c(N3C(=O)C4=C(CCCC4)C3=O)ccc(Cl)c2[nH]1
yes (1)

Postemergence herbicidal activity (% control) WHT under 50%? Item: Cn1c(C(F)(F)F)cc(=O)n(-c2c(F)cc(Cl)c3nc(-c4ccccc4)[nH]c23)c1=O
yes (1)

Postemergence herbicidal activity (% control) WHT under 50%? Item: CCCCc1cc2c(Cl)ccc(-n3c(=O)cc(C(F)(F)F)n(C)c3=O)c2o1
yes (1)

Postemergence herbicidal activity (% control) WHT under 50%? Item: Cn1c(C(F)(F)F)cc(=O)n(-c2c(F)cc(Cl)c3nc(Cc4ccccc4Cl)[nH]c23)c1=O
yes (1)

Postemergence herbicidal activity (% control) WHT under 50%? Item: CCCc1nc2c(-n3c(=O)cc(C(F)(F)F)n(C)c3=O)c(F)cc(Cl)c2o1
no (0)

Postemergence herbicidal activity (% control) WHT under 50%? Item: CC(Cl)c1cc2c(Cl)cc(F)c(-n3c(=O)cc(C(F)(F)F)n(C)c3=O)c2o1 (stereo not shown)
no (0)

Postemergence herbicidal activity (% control) WHT under 50%? Item: CC(F)c1cc2c(Cl)cc(F)c(-n3c(=O)cc(C(F)(F)F)n(C)c3=O)c2o1 (stereo not shown)
no (0)

Postemergence herbicidal activity (% control) WHT under 50%? Item: COC(=O)CCc1cc2c(Cl)cc(F)c(-n3c(=O)cc(C(F)(F)F)n(C)c3=O)c2o1
no (0)

Postemergence herbicidal activity (% control) WHT under 50%? Item: CCOC(=O)c1cc2c(Cl)ccc(-n3c(=O)cc(C(F)(F)F)n(C)c3=O)c2o1
yes (1)

Postemergence herbicidal activity (% control) WHT under 50%? Item: CON=Cc1cc2c(Cl)ccc(-n3c(=O)cc(C(F)(F)F)n(C)c3=O)c2o1
yes (1)

Postemergence herbicidal activity (% control) WHT under 50%? Item: Cn1c(C(F)(F)F)cc(=O)n(-c2c(F)cc(Cl)c3nc(Cc4cccc(Cl)c4)[nH]c23)c1=O
yes (1)

Postemergence herbicidal activity (% control) WHT under 50%? Item: CC(C)Oc1nc2c(-n3c(=O)cc(C(F)(F)F)n(C)c3=O)c(F)cc(Br)c2o1
yes (1)

Postemergence herbicidal activity (% control) WHT under 50%? Item: Cn1c(C(F)(F)F)cc(=O)n(-c2ccc(Cl)c3cc(-c4ccccc4)oc23)c1=O
yes (1)

Postemergence herbicidal activity (% control) WHT under 50%? Item: CC(C)C(=O)OC(C)c1cc2c(Cl)cc(F)c(-n3c(=O)cc(C(F)(F)F)n(C)c3=O)c2o1 (stereo not shown)
no (0)
